- protocol.details: Biodistribution in BALB/c nu/nu mice bearing PC-3 xenografts
- Type: in vivo
- condition.notes: female, BALB/c nu/nu, mouse, spleen, iv, 50 pmol, total radioactivity; 2 h p.i., i.v.; read-out: Radionuclide concentration, Spleen
Starred links: 1 amine or outer side, 2 acyl side, 3 side chain; linkers in the order of their positions; H or OH if unused. Non-standard residues stand in square brackets, D forms with d. Residues, ends and D or L forms follow the SMILES beside them. *: point of attachment. NOTA = O=C(O)CN1CCN(CC(=O)O)CCN(CC(=O)*)CC1; Sta = CC(C)C[C@H](N)[C@@H](O)CC(=O)O; X2 = O=C(COc1cccc(CN[*:1])c1)[*:2]; X1 = O=C(Cc1ccccc1CCN[*:1])[*:2]; X3 = O=C(COc1ccccc1CN[*:1])[*:2]
The molecules listed here are annotated with their tissue uptake at 2 h.
attribute.measured: tissue uptake at 2 h (%ID/g)

* CC(=O)N[C@@H](CCCCNC(=O)CN1CCN(CC(=O)O)CCN(CC(=O)O)CC1)C(=O)NCc1cccc(OCC(=O)N[C@H](Cc2ccccc2)C(=O)N[C@@H](CCC(N)=O)C(=O)N[C@@H](Cc2c[nH]c3ccccc23)C(=O)N[C@@H](C)C(=O)N[C@H](C(=O)NCC(=O)N[C@@H](Cc2c[nH]cn2)C(=O)N[C@@H](CC(C)C)[C@@H](O)CC(=O)N[C@@H](CC(C)C)C(N)=O)C(C)C)c1 [[^68Ga]Ga-NOTA-mMA-RM26, metal not drawn] (Ac-K(NOTA)[X2][dF]QWAVGH[Sta]L-NH2) | 1.1
* CC(=O)N[C@@H](CCCCNC(=O)CN1CCN(CC(=O)O)CCN(CC(=O)O)CC1)C(=O)NCCc1ccccc1CC(=O)N[C@H](Cc1ccccc1)C(=O)N[C@@H](CCC(N)=O)C(=O)N[C@@H](Cc1c[nH]c2ccccc12)C(=O)N[C@@H](C)C(=O)N[C@H](C(=O)NCC(=O)N[C@@H](Cc1c[nH]cn1)C(=O)N[C@@H](CC(C)C)[C@@H](O)CC(=O)N[C@@H](CC(C)C)C(N)=O)C(C)C [[^68Ga]Ga-NOTA-oET-RM26, metal not drawn] (Ac-K(NOTA)[X1][dF]QWAVGH[Sta]L-NH2) | 0.46
* CC(=O)N[C@@H](CCCCNC(=O)CN1CCN(CC(=O)O)CCN(CC(=O)O)CC1)C(=O)NCc1ccccc1OCC(=O)N[C@H](Cc1ccccc1)C(=O)N[C@@H](CCC(N)=O)C(=O)N[C@@H](Cc1c[nH]c2ccccc12)C(=O)N[C@@H](C)C(=O)N[C@H](C(=O)NCC(=O)N[C@@H](Cc1c[nH]cn1)C(=O)N[C@@H](CC(C)C)[C@@H](O)CC(=O)N[C@@H](CC(C)C)C(N)=O)C(C)C [[^68Ga]Ga-NOTA-oMA-RM26, metal not drawn] (Ac-K(NOTA)[X3][dF]QWAVGH[Sta]L-NH2) | 1.2

---

- protocol.details: Biodistribution in BALB/c nu/nu mice bearing PC-3 xenografts
- Type: in vivo
- condition.notes: female, BALB/c nu/nu, mouse, gastrointestinal tract, iv, total radioactivity; Blockade (co-injection of NOTA-PEG2-RM26), 2 h; read-out: Radionuclide quantity, Gastrointestinal tract
Starred links: 1 amine or outer side, 2 acyl side, 3 side chain; linkers in the order of their positions; H or OH if unused. Non-standard residues stand in square brackets, D forms with d. Residues, ends and D or L forms follow the SMILES beside them. *: point of attachment. NOTA = O=C(O)CN1CCN(CC(=O)O)CCN(CC(=O)*)CC1; Sta = CC(C)C[C@H](N)[C@@H](O)CC(=O)O; X2 = O=C(COc1cccc(CN[*:1])c1)[*:2]; X1 = O=C(Cc1ccccc1CCN[*:1])[*:2]; X3 = O=C(COc1ccccc1CN[*:1])[*:2]
attribute.measured: tissue uptake dose at 2 h

- CC(=O)N[C@@H](CCCCNC(=O)CN1CCN(CC(=O)O)CCN(CC(=O)O)CC1)C(=O)NCCc1ccccc1CC(=O)N[C@H](Cc1ccccc1)C(=O)N[C@@H](CCC(N)=O)C(=O)N[C@@H](Cc1c[nH]c2ccccc12)C(=O)N[C@@H](C)C(=O)N[C@H](C(=O)NCC(=O)N[C@@H](Cc1c[nH]cn1)C(=O)N[C@@H](CC(C)C)[C@@H](O)CC(=O)N[C@@H](CC(C)C)C(N)=O)C(C)C [[^68Ga]Ga-NOTA-oET-RM26, metal not drawn] (Ac-K(NOTA)[X1][dF]QWAVGH[Sta]L-NH2): 3.5 %ID
- CC(=O)N[C@@H](CCCCNC(=O)CN1CCN(CC(=O)O)CCN(CC(=O)O)CC1)C(=O)NCc1ccccc1OCC(=O)N[C@H](Cc1ccccc1)C(=O)N[C@@H](CCC(N)=O)C(=O)N[C@@H](Cc1c[nH]c2ccccc12)C(=O)N[C@@H](C)C(=O)N[C@H](C(=O)NCC(=O)N[C@@H](Cc1c[nH]cn1)C(=O)N[C@@H](CC(C)C)[C@@H](O)CC(=O)N[C@@H](CC(C)C)C(N)=O)C(C)C [[^68Ga]Ga-NOTA-oMA-RM26, metal not drawn] (Ac-K(NOTA)[X3][dF]QWAVGH[Sta]L-NH2): 4.1 %ID
- CC(=O)N[C@@H](CCCCNC(=O)CN1CCN(CC(=O)O)CCN(CC(=O)O)CC1)C(=O)NCc1cccc(OCC(=O)N[C@H](Cc2ccccc2)C(=O)N[C@@H](CCC(N)=O)C(=O)N[C@@H](Cc2c[nH]c3ccccc23)C(=O)N[C@@H](C)C(=O)N[C@H](C(=O)NCC(=O)N[C@@H](Cc2c[nH]cn2)C(=O)N[C@@H](CC(C)C)[C@@H](O)CC(=O)N[C@@H](CC(C)C)C(N)=O)C(C)C)c1 [[^68Ga]Ga-NOTA-mMA-RM26, metal not drawn] (Ac-K(NOTA)[X2][dF]QWAVGH[Sta]L-NH2): 3.1 %ID
